- Target System: T1, full length human DLL4 (human, UniProt Q9NR61 27-685)
- T1 construct: whole, on cells; also called native DLL4 expressed in HEK293 cells
- T1 sequence (Q9NR61 27-685): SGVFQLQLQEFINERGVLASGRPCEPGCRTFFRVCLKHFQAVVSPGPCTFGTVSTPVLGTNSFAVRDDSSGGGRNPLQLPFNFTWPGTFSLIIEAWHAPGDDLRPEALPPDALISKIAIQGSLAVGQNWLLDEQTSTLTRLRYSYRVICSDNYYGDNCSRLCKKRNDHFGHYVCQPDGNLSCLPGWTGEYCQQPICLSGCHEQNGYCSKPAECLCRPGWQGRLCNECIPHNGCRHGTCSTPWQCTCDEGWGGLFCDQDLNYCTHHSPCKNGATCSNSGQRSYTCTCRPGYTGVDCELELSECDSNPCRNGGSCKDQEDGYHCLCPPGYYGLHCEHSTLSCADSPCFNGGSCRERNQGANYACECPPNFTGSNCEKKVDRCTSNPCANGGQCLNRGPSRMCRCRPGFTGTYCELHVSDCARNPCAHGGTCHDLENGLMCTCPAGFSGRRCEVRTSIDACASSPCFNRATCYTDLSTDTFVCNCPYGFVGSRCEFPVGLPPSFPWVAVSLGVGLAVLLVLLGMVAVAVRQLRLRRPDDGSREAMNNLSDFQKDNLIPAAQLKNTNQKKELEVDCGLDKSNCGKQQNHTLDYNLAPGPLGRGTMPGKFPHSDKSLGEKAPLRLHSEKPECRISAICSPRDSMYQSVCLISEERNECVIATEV
- Assay Explanation: FACS binding, HEK293 cells with human DLL4
Reported EC50 by item:
Readout Type: EC50 (µg/mL)

Binder: 2H10 IgG2 VH wt/VL wt (antibody, V domains shown, IgG2, transiently expressed) VH: QVQLVESGGGVVQPGRSLRLSCAASGFTFSRHGMHWVRQAPGKGLEWVAVVWFDGSNIYYADSVKGRFTISRDNSKNTLYLQMNSLRAEDTAMYYCARDSRIAAADYWGQGTLVTVSS VL: SYELTQPPSVSVSPGQTVSITCSGDKLGDKYVCWYQQKPGQSPVLVIYQESKRPSGIPERFSGSSSGNTATLTISGTQAMDEADYYCQTWDSSLVVFGGGTKLTVL
Recorded Number: 0.043

Binder: 9G8 IgG2 VH wt/VL V79A (antibody, V domains shown, IgG2) VH: QLQLQESGPGLVKPSETLSLSCTVSGGSISSSSSYWGLIRQPPGKGLEWIGSIYYSGSTYYSPSLKSRVSISVDTSKNQFSLKLSSVTAADTAVYFCARQGYGGHPDVFDIWGQGTMVTVSS VL: SSELTQSPSVSVSPGQTARITCSGDKLGDVYVCWYQQKTGQSPVLVIYEDTKRPSGIPERFSGSNSGNTATLTISGTQAMDEADYYCQAWDSTTAVIFGGGTKLTVL
Recorded Number: 0.095

Binder: 9G8 IgG2 VH L38W/VL wt (antibody, V domains shown, IgG2) VH: QLQLQESGPGLVKPSETLSLSCTVSGGSISSSSSYWGWIRQPPGKGLEWIGSIYYSGSTYYSPSLKSRVSISVDTSKNQFSLKLSSVTAADTAVYFCARQGYGGHPDVFDIWGQGTMVTVSS VL: SSELTQSPSVSVSPGQTARITCSGDKLGDVYVCWYQQKTGQSPVLVIYEDTKRPSGIPERFSGSNSGNTATLTISGTQVMDEADYYCQAWDSTTAVIFGGGTKLTVL
Recorded Number: 0.07
